property.measured: melting point

What the record says about CCN(c1ccccc1)S(=O)(=O)c1ccc(Cl)c(C(=O)O)c1 : melting point is 128 to 130 °C

Consider CSc1ccc(C#N)c(Cl)c1 . Its measured melting point is 117 to 119 °C

Just so you know, measured melting point for O=C1CCSc2ccc(C(=O)O)cc2N1 came out at 262 to 264 °C

The recorded melting point for CCOC(=O)c1cc(CC)sc1N is 69 to 71 °C

For record NC(=NO)c1cccc(OCc2cccnc2)c1 the listed melting point is 127 to 129 °C

Just so you know, measured melting point for CC(Cl)C(=O)NC(N)=O (stereo not drawn) came out at 159 to 161 °C

Per the records, this compound ( Cc1cc(C(=O)O)c2c(-c3ccco3)noc2n1 ) has melting point equal to 232 to 234 °C

Memo: CCCCNc1ccc(S(=O)(=O)N2CCCC2)cc1N , reported melting point: 208 to 210 °C

Per the records, this compound ( CCC(=O)NNC(=O)C(C)Cl (stereo not drawn) ) has melting point equal to 157 to 159 °C

Record O=C(O)C1(c2ccc(F)cc2)CCC1 . Reported melting point: 67 to 69 °C

Noted for O=C(O)c1cc(-c2ccccn2)nc2ccccc12 : its melting point reads 297 to 299 °C

The recorded melting point for O=C(O)/C=C/c1cccc(-c2ccccc2)c1 is 195 to 197 °C

// melting point value for Cc1ccc(Nc2nnc(S)s2)cc1C : 181 to 183 °C

* * *

For each entry below, report its melting point value.

Measured melting point of Nc1ccc2nc(N3CCCC3)sc2c1 : 201 to 203 °C

Lookup result for NNS(=O)(=O)Cc1ccc([N+](=O)[O-])cc1 ; measured melting point: 139 to 141 °C

Briefly, melting point measured for CCOC(=O)c1cnc2c(OC)cc(Cl)c(OC)c2c1Cl : 152 to 154 °C

The measured melting point associated with O=c1[nH]c2ccc(NCc3ccc(Cl)cc3)cc2[nH]1 reads 264 to 266 °C

The recorded melting point for entry O=C(O)c1ccc(-c2ccncc2)[nH]c1=O equals 315 to 317 °C

# compound Cc1nnc(S)n1-c1cccc(N)c1 ; its melting point = 219 to 221 °C

The recorded melting point for NCc1nnc2n1CCCCC2 is 70 to 72 °C

* * *

Please respond with reported melting point for every item in the list.

Short answer for NC(=O)c1coc(Br)c1 : melting point was 165 to 167 °C

Query CSc1nn(C)c(N)c1C(N)=O yields melting point of 173 to 175 °C

The measured melting point associated with Nc1cnn(CC(=O)Nc2cccnc2)c1 reads 117 to 119 °C

The value of melting point measured for the molecule CC(=O)N(c1nc(/C=C\C(=O)O)cs1)c1ccccc1F turned out to be 195 to 197 °C

According to the records, this molecule CCS(=O)(=O)Nc1ccc(S(=O)(=O)Cl)c(C)c1 displays melting point of 82 to 84 °C

response.value for O=C(O)CCCNCc1ccccn1 (field: melting point) = 69 to 71 °C

According to the records, this molecule NNc1nc(Cl)c(Cl)cc1Cl displays melting point of 161 to 163 °C

For COC(=O)C1CCc2[nH]ncc2C1 (stereo unspecified) the molecule record lists melting point as 79 to 81 °C

The molecule COc1cccc(NC(=O)OCC(F)(F)F)c1 showed melting point equal to 58 to 60 °C

Lab note: measured melting point of CC(C)=C(C)C(=O)O was 68 to 70 °C

Memo: Cc1cc(Br)ncc1[N+](=O)[O-] , reported melting point: 64 to 66 °C

# molecule Cc1cc(S(=O)(=O)Cl)sc1C(=O)O ; its melting point = 194 to 196 °C

GET /value?item= O=C(c1ccc[nH]1)N1CCCNCC1 &field=melting point returns 143 to 145 °C

Entry under test: COC(=O)c1cccc(-c2nn[nH]n2)c1 . Its melting point was 189 to 191 °C

melting point reported for this molecule N#Cc1cccc(NC(=O)c2cccc(N)c2)c1 : 163 to 165 °C

The molecule listed as CN(C1CCCCC1)S(=O)(=O)c1ccc(C(=O)O)cc1 has a reported melting point of 213 to 215 °C

Sample CSCCC(NC(=O)c1ccc2ccccc2n1)C(=O)O (stereo unspecified) ; melting point observed: 131 to 133 °C

Lookup result for NNS(=O)(=O)c1ccc(Br)cc1 ; measured melting point: 225 to 227 °C

Reported melting point of Cc1ccc(C(=O)CC#N)c(C)c1 : 78 to 80 °C

Record summary for O=C(O)c1cc(-c2ccccc2)n(-c2ccccn2)n1 : reported melting point = 194 to 196 °C

# melting point of FC(F)(F)c1cc(Cl)nc(-c2cccnc2)n1 = 114 to 116 °C

Short answer for Cn1c(Cl)nnc1-c1ccc(Cl)cc1Cl : melting point was 161 to 163 °C

Value of measured melting point for the entry NS(=O)(=O)C=Cc1ccc(F)cc1 : 148 to 150 °C

Per the records, this molecule ( O=C1NC(=O)C2(CCSCC2)N1 ) has melting point equal to 265 to 267 °C

The molecule O=C(O)C(F)(F)c1cccc(Cl)c1 showed melting point equal to 75 to 77 °C

In plain terms, CCn1c(S)nnc1-c1ccc(C(C)(C)C)cc1 has a documented melting point of 130 to 132 °C

Measured melting point, Cc1cc(N2CCCS2(=O)=O)ccc1Br : 131 to 133 °C

Recorded result, O=c1[nH]c(CCl)nc2sc(-c3ccccc3)cc12 , melting point: 286 to 288 °C

The molecule listed as Cc1ccc(-c2cnnn2-c2ccc(C(=O)O)cc2)cc1 shows melting point equal to 236 to 238 °C

response.value for COC(=O)c1cccc(C(N)=NO)c1 (field: melting point) = 102 to 104 °C

In plain terms, CCN(CCC(=O)O)Cc1nc2c(C)cccc2c(=O)[nH]1 has a documented melting point of 184 to 186 °C

// recorded melting point for O=Cc1cccc(Br)c1O : 51 to 55 °C

# molecule Nc1cc(-c2cccc(Br)c2)ncn1 ; its melting point = 229 to 231 °C

Lab note: measured melting point of COC(=O)C1CC(OC)=CC1=O (stereo unspecified) was 47 to 49 °C

So for Oc1cccc(-c2nnco2)c1 , the logged melting point turned out to be 211 to 213 °C

The molecule O=C(O)C(Cc1ccsc1)C(=O)O showed melting point equal to 108 to 110 °C

Recorded melting point (molecule Cc1nn(CCO)c(C(F)(F)Cl)c1C(=O)O ): 124 to 126 °C

Looking up O=C(O)CN1CCCC1CO (stereo unspecified) , I see its melting point listed as 146 to 148 °C

melting point measured on CC(=O)NC1=NN(C(C)=O)C(C)(c2ccccc2)S1 (stereo unspecified) = 223 to 225 °C

Reported melting point of Cn1cnnc1S(=O)(=O)O : 170 to 172 °C

Please fill in: melting point reported for O=CNc1cc([N+](=O)[O-])ccc1Cl = 183 to 185 °C

The molecule listed as N#CCC(=O)c1ccc2c(c1)OCO2 shows melting point equal to 134 to 136 °C

melting point measured on O=C(CCl)N1N=C(c2ccco2)CC1c1cccs1 (stereo unspecified) = 153 to 155 °C

Looking up O=[N+]([O-])c1cc(Cl)cc(Br)c1O , I see its melting point listed as 126 to 128 °C

// melting point value for O=C(Cc1ncc[nH]1)c1ccc(Cl)cc1F : 140 to 142 °C

response.value for COc1cc(C(=O)O)ccc1OCc1ccccn1 (field: melting point) = 149 to 151 °C

# melting point (molecule: Cc1ccc(C)n1Cc1ccccc1Cl ) is 87 to 89 °C

Notebook: Oc1nc(O)c2c(n1)CCC2 , melting point read as 324 to 326 °C

Form field melting point, entry CC(C)(C)OC(=O)NC(C(=O)O)C1CCCCC1 (stereo unspecified) : 163 to 165 °C

melting point reading for N#Cc1ccc2cc(Br)c(Br)cc2c1 : 138 to 140 °C

Query Nc1cccc(NC(=O)C2CC2)c1 yields melting point of 133 to 135 °C

The recorded melting point for CC(C)(C)OC(=O)NC1CCN(C(=O)CC(F)(F)F)CC1 is 147 to 149 °C

Memo: NC(CCl)=NO , reported melting point: 83 to 87 °C

For reference, reported melting point for O=C(O)CNC(=O)N1CCc2ccccc2C1 stands at 159 to 161 °C

Entry NC(=S)Cc1cn2cc(Cl)cc(Cl)c2n1 ; melting point = 189 to 191 °C

Consider Cc1cc(O)nc(C(C)Cl)n1 (stereo unspecified) . Its measured melting point is 132 to 134 °C
